Target: Gal-3 (Homo sapiens)
Sequence (P17931 whole entry): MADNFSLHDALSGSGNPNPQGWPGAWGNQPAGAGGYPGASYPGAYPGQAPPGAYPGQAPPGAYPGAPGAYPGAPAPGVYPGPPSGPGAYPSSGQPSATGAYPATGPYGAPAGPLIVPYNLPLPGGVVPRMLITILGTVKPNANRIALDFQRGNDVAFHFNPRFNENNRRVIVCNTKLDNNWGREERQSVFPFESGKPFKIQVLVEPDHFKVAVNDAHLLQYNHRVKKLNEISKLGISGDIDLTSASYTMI
Experiment: Fluorescence anisotropy assay, compound as inhibitor of galectin / fluorescein tagged saccharide probe interaction
value.kind: Kd (µM)
Numbers only, in µM.

[[record]]
compound = "Cc1nc2ccc(-n3cnnc3[C@@H]3O[C@H](CO)[C@H](O)[C@H](n4cc(-c5csc(N)n5)nn4)[C@H]3O)cc2s1"
value_kind = "Kd"
experimental_result = 1.9


Batch request: Kd per item, same order as input.
1. CO[C@@H]1[C@@H](n2cc(-c3nc(Cl)cs3)nn2)[C@@H](O)[C@@H](CO)O[C@H]1c1nnc(C)n1-c1cc(Cl)ccc1C(F)(F)F
2. Cc1nc([C@@H]2OC(CO)[C@H](O)C(n3cc(-c4csc(N)n4)nn3)C2O)n(-c2cc(Cl)ccc2C(F)(F)F)n1 (stereo partly drawn)

0.026
1.3
